pIC50: −log10 of the molar value.
For reference, the following pIC50 results for UniProt:P36888 were taken from various sources.
Sequence (P36888 whole entry): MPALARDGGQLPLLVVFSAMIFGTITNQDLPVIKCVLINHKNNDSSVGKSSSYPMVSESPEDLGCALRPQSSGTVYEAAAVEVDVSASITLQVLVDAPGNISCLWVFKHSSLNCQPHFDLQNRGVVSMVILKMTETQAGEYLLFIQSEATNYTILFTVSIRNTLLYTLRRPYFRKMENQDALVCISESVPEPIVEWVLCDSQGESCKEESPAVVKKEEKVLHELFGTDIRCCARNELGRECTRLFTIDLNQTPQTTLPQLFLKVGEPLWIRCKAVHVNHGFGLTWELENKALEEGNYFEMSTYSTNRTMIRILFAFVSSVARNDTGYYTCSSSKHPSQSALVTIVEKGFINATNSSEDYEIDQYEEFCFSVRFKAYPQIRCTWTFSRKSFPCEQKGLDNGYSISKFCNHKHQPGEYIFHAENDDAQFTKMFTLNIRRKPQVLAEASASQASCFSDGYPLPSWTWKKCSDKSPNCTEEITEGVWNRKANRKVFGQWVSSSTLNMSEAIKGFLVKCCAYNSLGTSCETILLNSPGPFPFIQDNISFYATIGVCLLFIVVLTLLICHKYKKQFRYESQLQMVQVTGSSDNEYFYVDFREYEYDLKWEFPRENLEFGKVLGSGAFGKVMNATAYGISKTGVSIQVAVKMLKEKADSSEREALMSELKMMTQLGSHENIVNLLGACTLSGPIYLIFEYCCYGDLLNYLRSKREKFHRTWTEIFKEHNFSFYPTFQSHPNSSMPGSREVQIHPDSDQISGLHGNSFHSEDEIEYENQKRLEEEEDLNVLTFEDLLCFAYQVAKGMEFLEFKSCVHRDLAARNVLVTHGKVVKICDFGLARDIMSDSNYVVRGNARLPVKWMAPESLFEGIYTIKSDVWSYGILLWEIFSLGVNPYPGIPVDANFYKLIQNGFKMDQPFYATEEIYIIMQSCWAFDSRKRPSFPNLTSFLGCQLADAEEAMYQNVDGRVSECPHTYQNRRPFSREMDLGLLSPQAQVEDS
# pIC50 binned as small value = under 7, mid value = from 7 up to 8, large value = 8 and over

Past entries and their recorded results:
CCOc1cc(N2CCOCC2)ccc1NC(=O)c1cnn2ccc(N[C@@H]3CCCNC3)nc12 :: large value
CCN(CC)C(=O)n1cc(-c2ccc(NC(=O)Nc3cc(C(C)(C)C)on3)cc2)c2c(N)ncnc21 :: mid value
Cc1cc(Cl)cc2c1NC(=O)/C2=C1\Nc2ccccc2\C1=N/O :: small value

Query block: Which bin, given its pIC50, does "C=CCOc1cc(OC)ccc1C(=O)/C=C/c1ccc(OC)cc1" occupy?
Result block: small value

Query block: Which bin, given its pIC50, does "Fc1ccc(-n2cc(-c3ccc4nccnc4c3)nn2)cc1" occupy?
Result block: small value

Query block: Which bin, given its pIC50, does "CC(C)(C)c1cc(NC(=O)Nc2ccc(-c3cn(CCN4CCOCC4)c4ncnc(N)c34)cc2)no1" occupy?
Result block: mid value

Query block: Which bin, given its pIC50, does "CCNCCC(=O)Nc1c[nH]c(/C=C2\C(=O)Nc3ccc(F)cc32)c1C" occupy?
Result block: large value

Query block: Which bin, given its pIC50, does "CS(=O)(=O)CCNc1nc(NCCc2ccncc2)ncc1-c1nnc(C2CC2)o1" occupy?
Result block: small value

Query block: Which bin, given its pIC50, does "CN(C)C1CCN(c2ccc(Nc3ncc4c5ccncc5n([C@H]5CC[C@H](C)CC5)c4n3)nn2)CC1" occupy?
Result block: large value
